System: Phytophthora capsici
Experiment: Antifungal activity against Phytophthora capsici at 150 uM
Assay type: functional
Exercise: for every item that follows, state its recorded inhibition at 150 µM.

Answered cases to consult:
CC1(C)CCC[C@]2(C)[C@H]3Cc4cc(OC(=O)c5cccnc5Cl)ccc4O[C@]3(C)CC[C@@H]12 :: < 60%
Cc1c(C[C@@H]2[C@@]3(C)CCCC(C)(C)[C@H]3CC[C@]2(C)O)c(O)cc(O)c1C[C@@H]1[C@@]2(C)CCCC(C)(C)[C@@H]2CC[C@@]1(C)O :: 6%
CC(=O)Oc1ccc2c(c1)C[C@@H]1[C@@]3(C)CCCC(C)(C)[C@@H]3CC[C@@]1(C)O2 :: < 60%
CC1(C)CCC[C@]2(C)[C@H]3Cc4c(O)cccc4O[C@]3(C)CC[C@@H]12 :: 54%
CC1(C)CCC[C@]2(C)[C@H]3Cc4cc(OC(=O)c5cccc(F)c5)ccc4O[C@]3(C)CC[C@@H]12 :: < 60%
CC1(C)CCC[C@@]2(C)C1CC[C@@]1(C)Oc3ccc(OS(=O)(=O)C(F)(F)F)cc3C[C@@H]12 (stereo partly drawn) :: < 60%
COc1ccc2c(c1)C[C@@H]1[C@@]3(C)CCCC(C)(C)[C@@H]3CC[C@@]1(C)O2 :: < 60%

# evaluate next
# compound CC1(C)CCC[C@@]2(C)C1CC[C@@]1(C)Oc3ccc(O)c(Cl)c3C[C@@H]12 (stereo partly drawn) ; its inhibition at 150 µM = < 60%

* * *

Test system: Fusarium graminearum
Assay: Antifungal activity against Fusarium graminearum at 150 uM
Format: functional
assay-readout: inhibition at 150 µM

Answered cases to consult:
CC1(C)CCC[C@@]2(C)C1CC[C@@]1(C)Oc3ccc(OS(=O)(=O)C(F)(F)F)cc3C[C@@H]12 (some centres not stated) :: < 60%
CCOc1ccc2c(c1)C[C@@H]1[C@@]3(C)CCCC(C)(C)[C@@H]3CC[C@@]1(C)O2 :: < 60%

For every item below, please supply its inhibition at 150 µM.
1. C#CCOc1ccc2c(c1)C[C@@H]1[C@@]3(C)CCCC(C)(C)[C@@H]3CC[C@@]1(C)O2
2. COc1ccc(-c2ccc3c(c2)C[C@H]2[C@@](C)(CCC4C(C)(C)CCC[C@@]42C)O3)cc1 (some centres not stated)

Reply |
1: < 60%; 2: < 60%

* * *

Test system: Phytophthora capsici
Test: Antifungal activity against Phytophthora capsici at 150 uM
Assay type: functional
assay-readout: inhibition at 150 µM

For every item below, please supply its inhibition at 150 µM.
1. CC1(C)CCC[C@@]2(C)C1CC[C@@]1(C)Oc3ccc(-c4ccncc4)cc3C[C@@H]12 (stereo partly specified)
2. C#CCOc1ccc2c(c1)C[C@@H]1[C@@]3(C)CCCC(C)(C)[C@@H]3CC[C@@]1(C)O2
3. CC1(C)CCC[C@@]2(C)C1CC[C@@]1(C)Oc3ccc(-c4cccnc4)cc3C[C@@H]12 (stereo partly specified)
4. CC1(C)CCC[C@]2(C)[C@H]3Cc4cc(O)cc(O)c4[C@]3(C)CC[C@@H]12
5. CC1(C)CCC[C@]2(C)[C@H]3Cc4cc(OCc5ccccc5)ccc4O[C@]3(C)CC[C@@H]12
6. COc1ccc(C(=O)Oc2ccc3c(c2)C[C@@H]2[C@@]4(C)CCCC(C)(C)[C@@H]4CC[C@@]2(C)O3)cc1
7. CC1(C)CCC[C@]2(C)[C@@H](Cc3cccc(O)c3O)[C@](C)(O)CC[C@@H]12

Reply |
1: < 60%; 2: < 60%; 3: < 60%; 4: 65%; 5: < 60%; 6: < 60%; 7: 24%

For every item below, please supply its inhibition at 150 µM.
1. COc1ccc(NC(=O)Oc2ccc3c(c2)C[C@H]2[C@@](C)(CCC4C(C)(C)CCC[C@@]42C)O3)cc1 (stereo partly specified)
2. CC1(C)CCC[C@]2(C)[C@H]3Cc4cccc(O)c4O[C@]3(C)CC[C@@H]12
3. CC1(C)CCC[C@]2(C)[C@H]3Cc4cc(OC(=O)c5ccccc5)ccc4O[C@]3(C)CC[C@@H]12

Reply |
< 60%
40%
< 60%

# compound "CC1(C)CCC[C@]2(C)[C@@H](Cc3cc(O)cc(O)c3)[C@](C)(O)CC[C@@H]12" ; its inhibition at 150 µM = 3%

* * *

Exercise: for every item that follows, state its recorded inhibition at 150 µM.
Tested on: Fusarium graminearum
Assay: Antifungal activity against Fusarium graminearum at 150 uM
Format: functional
Give bare numbers, in %.

CC1(C)CCC[C@]2(C)[C@@H](Cc3cc(O)ccc3O)[C@](C)(O)CC[C@@H]12 :: 39

# evaluate next
# molecule "CC1(C)CCC[C@]2(C)[C@@H](Cc3ccc(O)c(O)c3)[C@](C)(O)CC[C@@H]12" ; its inhibition at 150 µM = 38

* * *

System: Phytophthora capsici
Assay: Antifungal activity against Phytophthora capsici at 150 uM
Type: functional
Exercise: for every item that follows, state its recorded inhibition at 150 µM.

CC1(C)CCC[C@@]2(C)[C@H]1CCC1(C)Oc3ccc(Oc4cccnc4)cc3C[C@@H]12 (single isomer, unassigned) :: < 60%

For every item below, please supply its inhibition at 150 µM.
1. CC1(C)CCC[C@]2(C)[C@H]3Cc4cc(Oc5ccccc5)ccc4O[C@]3(C)CC[C@@H]12
2. CC1(C)CCC[C@]2(C)[C@@H](Cc3c(O)cccc3O)[C@](C)(O)CC[C@@H]12
3. C=CC(=O)Oc1ccc2c(c1)C[C@@H]1[C@@]3(C)CCCC(C)(C)[C@@H]3CC[C@@]1(C)O2

Reply |
["< 60%", "50%", "< 60%"]

* * *

Test system: Phytophthora capsici
Assay: Antifungal activity against Phytophthora capsici at 150 uM
Assay type: functional
Exercise: for every item that follows, state its recorded inhibition at 150 µM.
Numbers only, in %.

Answered cases to consult:
CC1(C)CCC[C@]2(C)[C@@H](Cc3cc(O)ccc3O)[C@](C)(O)CC[C@@H]12 :: 28
CC1(C)CCC[C@]2(C)[C@@H](Cc3ccc(O)c(O)c3)[C@](C)(O)CC[C@@H]12 :: 72
Cc1ccc(O)c(C[C@@H]2[C@@]3(C)CCCC(C)(C)[C@@H]3CC[C@@]2(C)O)c1 :: 1

For every item below, please supply its inhibition at 150 µM.
1. CC1(C)CCC[C@]2(C)[C@@H](Cc3ccc(O)cc3O)[C@](C)(O)CC[C@@H]12
2. CC1(C)CCC[C@]2(C)[C@H]3Cc4ccc(O)cc4O[C@]3(C)CC[C@@H]12
3. COc1cc2c(cc1OC)O[C@]1(C)CC[C@H]3C(C)(C)CCC[C@]3(C)[C@H]1C2
4. CC1(C)CCC[C@]2(C)C3=CC4=CC(=O)C(=O)C=C4O[C@]3(C)CC[C@@H]12

Reply |
1. 37
2. 53
3. 5
4. 18

* * *

Exercise: for every item that follows, state its recorded inhibition at 150 µM.
Tested on: Fusarium graminearum
Test: Antifungal activity against Fusarium graminearum at 150 uM
Assay type: functional

CC1(C)CCC[C@]2(C)[C@H]3Cc4cc(OC(=O)c5ccc6ccccc6n5)ccc4O[C@]3(C)CC[C@@H]12 :: < 60%
CC1(C)CCC[C@@]2(C)C1CC[C@@]1(C)Oc3ccc(OC(=O)Nc4ccc(F)cc4)cc3C[C@@H]12 (stereo partly drawn) :: < 60%

# evaluate next
# compound "COc1ccc2c(c1)C[C@@H]1[C@@]3(C)CCCC(C)(C)[C@@H]3CC[C@@]1(C)O2" ; its inhibition at 150 µM = < 60%

* * *

Exercise: for every item that follows, state its recorded inhibition at 150 µM.
Test system: Fusarium graminearum
Assay: Antifungal activity against Fusarium graminearum at 150 uM
Assay type: functional

Answered cases to consult:
CC1(C)CCC[C@]2(C)[C@H]3Cc4cc(OC(=O)c5cccc(F)c5)ccc4O[C@]3(C)CC[C@@H]12 :: < 60%
CC1(C)CCC[C@@]2(C)C1CC[C@@]1(C)Oc3ccc(O)c(Cl)c3C[C@@H]12 (stereo partly drawn) :: < 60%
Cc1c(C[C@@H]2[C@@]3(C)CCCC(C)(C)[C@H]3CC[C@]2(C)O)c(O)cc(O)c1C[C@@H]1[C@@]2(C)CCCC(C)(C)[C@@H]2CC[C@@]1(C)O :: 4%

For every item below, please supply its inhibition at 150 µM.
1. CC1(C)CCC[C@]2(C)[C@@H](Cc3cc(O)cc(O)c3)[C@](C)(O)CC[C@@H]12
2. CC1(C)CCC[C@]2(C)[C@H]3Cc4cc(OC(=O)c5ccccn5)ccc4O[C@]3(C)CC[C@@H]12
3. CC1(C)CCC[C@]2(C)[C@@H](Cc3c(O)cccc3O)[C@](C)(O)CC[C@@H]12
4. CC1(C)CCC[C@@]2(C)C1CC[C@@]1(C)Oc3ccc(-c4cccnc4)cc3C[C@@H]12 (stereo partly drawn)

Reply |
5%
< 60%
49%
< 60%

# molecule CC1(C)CCC[C@@]2(C)C1CC[C@@]1(C)Oc3ccc(-c4ccccc4)cc3C[C@@H]12 (stereo partly drawn) ; its inhibition at 150 µM = < 60%
